- MEASUREMENT_NOTES: Therapeutic index, ratio of MHC for human RBC to MIC for chloroquine-resistant/mefloquine-sensitive Plasmodium falciparum W2 schizonts infected in human erythrocytes
- Type: toxicity, cell-based
- RUN_CONDITIONS: read-out: TI
REPORTED_METRIC: selectivity ratio
One number for each entry.

Input: Using known records, supply selectivity ratio for CC1(C)OOC1(C)C
Output: 1e+07
